Target: A1 adenosine receptor (Mesocricetus auratus)
Construct: A1 adenosine receptor sites on the membranes of DDT cells; endogenous in cells
Sequence (A0A1U8BVR4 1-326): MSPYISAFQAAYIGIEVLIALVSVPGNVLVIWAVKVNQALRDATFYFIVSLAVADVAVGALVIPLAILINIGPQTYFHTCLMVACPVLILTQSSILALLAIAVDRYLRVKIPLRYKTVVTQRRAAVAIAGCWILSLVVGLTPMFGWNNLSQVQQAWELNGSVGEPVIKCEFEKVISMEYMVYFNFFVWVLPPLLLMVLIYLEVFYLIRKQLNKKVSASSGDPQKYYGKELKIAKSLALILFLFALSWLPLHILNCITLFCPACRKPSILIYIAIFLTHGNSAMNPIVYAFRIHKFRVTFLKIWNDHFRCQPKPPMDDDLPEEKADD
Assay: Competitive radioligand binding assay, A1 binding affinity, DDT1 cell membranes
Details: membranes of DDT cells, tritiated radioligand (3H-CPA) 1.5 nM, 23° C. 90 minutes
pKi: −log10 of the molar value.

| compound | target | pKi |
| --- | --- | --- |
| CCCNC(=O)c1cnn(-c2nc(NCc3ccccc3)c3ncn([C@@H]4O[C@H](CO)[C@@H](O)[C@H]4O)c3n2)c1 | A1 adenosine receptor (Mesocricetus auratus) | 5.96 |
| O=C(O)c1cnn(-c2nc(NC3CCCC3)c3ncn([C@@H]4O[C@H](CO)[C@@H](O)[C@H]4O)c3n2)c1 | A1 adenosine receptor (Mesocricetus auratus) | 8.10 |
| Cc1cc(C)n(-c2nc(NC3CCCC3)c3ncn(C4O[C@H](CO)[C@@H](O)[C@H]4O)c3n2)n1 (some centres unmarked) | A1 adenosine receptor (Mesocricetus auratus) | 7.03 |
| CCOC(=O)c1cnn(-c2nc(NC3CC4CCC3C4)c3ncn(C4O[C@H](CO)[C@@H](O)[C@H]4O)c3n2)c1 (some centres unmarked) | A1 adenosine receptor (Mesocricetus auratus) | 8.70 |
| CCNC(=O)[C@H]1O[C@@H](n2cnc3c(N[C@@H]4CCOC4)nc(-n4cc(-c5ccncc5)cn4)nc32)[C@H](O)[C@@H]1O | A1 adenosine receptor (Mesocricetus auratus) | 5.97 |
| CCCNC(=O)c1cnn(-c2nc(N[C@@H]3CCOC3)c3ncn([C@@H]4O[C@H](CO)[C@@H](O)[C@H]4O)c3n2)c1 | A1 adenosine receptor (Mesocricetus auratus) | 8.00 |
| CCNC(=O)[C@H]1O[C@@H](n2cnc3c(N[C@@H]4CCOC4)nc(-n4cc(-c5ccc6ccccc6n5)cn4)nc32)[C@H](O)[C@@H]1O | A1 adenosine receptor (Mesocricetus auratus) | 7.13 |
| O=C(NCc1cc(F)cc(C(F)(F)F)c1)c1cnn(-c2nc(N[C@@H]3CCOC3)c3ncn([C@@H]4O[C@H](CO)C(O)C4O)c3n2)c1 (stereo in doubt) | A1 adenosine receptor (Mesocricetus auratus) | 7.25 |
| COC(=O)c1ccc(CNC(=O)c2cnn(-c3nc(N[C@@H]4CCOC4)c4ncn([C@@H]5O[C@H](CO)[C@@H](O)[C@H]5O)c4n3)c2)cc1 | A1 adenosine receptor (Mesocricetus auratus) | 8.22 |
| O=C(O)c1ccc(CNC(=O)c2cnn(-c3nc(N[C@@H]4CCOC4)c4ncn([C@@H]5O[C@H](CO)[C@@H](O)[C@H]5O)c4n3)c2)cc1 | A1 adenosine receptor (Mesocricetus auratus) | 8.10 |
| O=C(O)c1cnn(-c2nc(NC3CC4CCC3C4)c3ncn(C4O[C@H](CO)[C@@H](O)[C@H]4O)c3n2)c1 (some centres unmarked) | A1 adenosine receptor (Mesocricetus auratus) | 9.00 |
| CCOC(=O)c1cnn(-c2nc(NC3CCCC3)c3ncn([C@@H]4O[C@H](CO)[C@@H](O)[C@H]4O)c3n2)c1 [III] | A1 adenosine receptor (Mesocricetus auratus) | 7.44 |
| CCNC(=O)c1cnn(-c2nc(NCc3ccccc3)c3ncn([C@@H]4O[C@H](CO)[C@@H](O)[C@H]4O)c3n2)c1 | A1 adenosine receptor (Mesocricetus auratus) | 5.82 |
| CNC(=O)c1cnn(-c2nc(NC3CCCC3)c3ncn([C@@H]4O[C@H](CO)[C@@H](O)[C@H]4O)c3n2)c1 | A1 adenosine receptor (Mesocricetus auratus) | 9.00 |
